Kindly supply the reported Percent of Control Activity values for the records listed here.
tested on: H4-IIE Cells; assay: Glucose production in cultured H4-IIE cells; type: cell-based, rat; settings: glucose concentration in medium relative to untreated cells; 5 μM peptide, 24 h
Lab book: enter the figure in %, no units written.

Ask | Please give the measured Percent of Control Activity for this substance: 119 (MSLTPHILPTMP) [compound 119]
Reply | 122

Ask | Any idea what its Percent of Control Activity is? The substance is 56 (MKNHRCISTT) [compound 56]
Reply | 112

Ask | What does the record list as Percent of Control Activity for 53 (MIYVSSDVGDWWKGGWGVWWVVHG) [compound 53] ?
Reply | 115

Ask | What value of Percent of Control Activity has been reported for the following substance? 204 (RMGASIGSTTRLSTS) [compound 204]
Reply | 107

Ask | What does the data say about its Percent of Control Activity? Entry: 203 (KNIEAPLAW) [compound 203]
Reply | 102

Ask | Need Percent of Control Activity of 52 (MITVPAHKGMAMA) [compound 52] , thanks.
Reply | 107

Ask | May I ask what Percent of Control Activity has been recorded for 61 (MLFMRGNAMSGAPII) [compound 61] ?
Reply | 107

Ask | Returns the measured Percent of Control Activity for the input substance. Input: 3 (MAGGFMLMIVVMKLMAPKMEETPA) [compound 3]
Reply | 118

Ask | Please report the recorded Percent of Control Activity for 41 (MGSSRINPDPSPS) [compound 41] .
Reply | 108

Ask | What does the data say about its Percent of Control Activity? Entry: 180 (MVVGSWCWSLSWVVGMR) [compound 180]
Reply | 106

Ask | Item under review: 69 (MLMVEWWLGWLHM) [compound 69] . Reported Percent of Control Activity?
Reply | 111

Ask | // query Percent of Control Activity value for entry 186 (MIINDEYWLVVLVMVHCPESMLLK) [compound 186]
Reply | 115

Ask | Reported Percent of Control Activity for 155 (MVVCMVITFIWSCTKIFGA) [compound 155] : what is it?
Reply | 95

Ask | Data request, read-out Percent of Control Activity, for 157 (MVVKGPLSEGGHPWGREGIWL) [compound 157]
Reply | 109

Ask | Given the entry 30 (MGEGLEENPTNPITKPTLN) [compound 30] , report its measured Percent of Control Activity.
Reply | 102

Ask | Give its Percent of Control Activity value. Item: 92 (MMTWSPWKPVATKNVEP) [compound 92]
Reply | 124

Ask | For the substance 133 (MTLGHNMIYLHTS) [compound 133] , what Percent of Control Activity is on record?
Reply | 91

Ask | // query Percent of Control Activity value for entry 122 (MSNNMAFSTFKG) [compound 122]
Reply | 97

Ask | State the recorded Percent of Control Activity for this entry: 97 (MNNSSSTVQP) [compound 97]
Reply | 122

Ask | May I ask what Percent of Control Activity has been recorded for 43 (MGVGMEWGLLLRRGR) [compound 43] ?
Reply | 112

Ask | State the recorded Percent of Control Activity for this entry: 146 (MVLEFGLVGYFLLGGGSGWV) [compound 146]
Reply | 99

Ask | So what does the record say about Percent of Control Activity for 168 (MYCNWDCSGE) [compound 168] ?
Reply | 120

Ask | Which Percent of Control Activity is listed for 209 (FAVSMMWSLE) [compound 209] ?
Reply | 104

Ask | GET /values?readout=Percent of Control Activity&item= 173 (MYTPTNNVQPVTTTNQRP) [compound 173]
Reply | 103

Ask | Recorded Percent of Control Activity for 164 (MWNDLLQCSEP) [compound 164] , please?
Reply | 109

Ask | Fill in: Percent of Control Activity of 183 (MMKVDATMDFT) [compound 183] is ___
Reply | 121

Ask | Find the recorded Percent of Control Activity belonging to 31 (MGEVGLLWLGRI) [compound 31] and report it.
Reply | 101

Ask | Requested read-out: Percent of Control Activity. Entry: 121 (MSNMKTFSSA) [compound 121]
Reply | 95

Ask | Given the substance 134 (MTNIFGVWAR) [compound 134] , what is its reported Percent of Control Activity?
Reply | 92

Ask | Quick check: Percent of Control Activity of 54 (MKFEIWLGWC) [compound 54] ?
Reply | 113

Ask | Can you look up the measured Percent of Control Activity of 178 (MVQTVSISWASEMLVLVSFVVSV) [compound 178] for me?
Reply | 108

Ask | Percent of Control Activity lookup needed for 67 (MLLMWWVSEPHCVVVNM) [compound 67] , thanks.
Reply | 107

Ask | Fill blank: measured Percent of Control Activity of the substance 46 (MHHMKHPIIC) [compound 46] is ____.
Reply | 106

Ask | For the substance 45 (MHGELPWVVN) [compound 45] , what Percent of Control Activity is on record?
Reply | 107

Ask | Please report the recorded Percent of Control Activity for 11 (MAVVDGWVNTWVVPKSASPWKN) [compound 11] .
Reply | 76

Ask | Which Percent of Control Activity reading was recorded for the substance 24 (MFKLSFYFYVV) [compound 24] ?
Reply | 96

Ask | Give the measured Percent of Control Activity of 81 (MMFPIRLHNSPIRP) [compound 81] .
Reply | 115

Ask | So what does the record say about Percent of Control Activity for 174 (MYYSDGYWGVSWGMGV) [compound 174] ?
Reply | 110

Ask | Field request: Percent of Control Activity | item: 185 (MLVMLEVMFLVN) [compound 185]
Reply | 119

Ask | Field request: Percent of Control Activity | item: 13 (MCSCVYVYSYCKYMVCSHDKP) [compound 13]
Reply | 87

Ask | Which Percent of Control Activity reading was recorded for the substance 149 (MVLSSPPIFRMSCSLL) [compound 149] ?
Reply | 97

Ask | Entry 28 (MGCSGSSVSQCYRVHTPQTKMPNAW) [compound 28] has what Percent of Control Activity?
Reply | 121

Ask | If you can, please state the reported Percent of Control Activity value of 160 (MWLGVGLGWVG) [compound 160] .
Reply | 102

Ask | Item 171 (MYRHLQQTLMKATK) [compound 171] has what recorded Percent of Control Activity?
Reply | 100

Ask | Data request, read-out Percent of Control Activity, for 40 (MGSPPPAGSKKVVL) [compound 40]
Reply | 109

Ask | Field request: Percent of Control Activity | item: 123 (MSRNHSFCLNYMPIRFSLILFVVTH) [compound 123]
Reply | 106

Ask | For 136 (MTNTLNSIHPPLP) [compound 136] , what is its reported Percent of Control Activity?
Reply | 94

Ask | Record request: Percent of Control Activity value, item 112 (MQSGVLQSLAVTEIKYCNLL) [compound 112]
Reply | 144

Ask | Which Percent of Control Activity is listed for 62 (MLGVVGWCRL) [compound 62] ?
Reply | 106

Ask | Param item = 20 (MFDQENVVTSTESSPS) [compound 20] ; retrieve measured Percent of Control Activity.
Reply | 97

====

tested on: C2C12 Cells; test: Glucose utilization in cultured C2C12 cells (myotubes); type: cell-based, mouse; conditions: glucose concentration in medium relative to untreated cells; 5 μM peptide, 22 h
I'd be grateful if you could share measured Percent of Control Activity for these entries.
Write the quantity with the unit trailing the number.

Ask | What measured Percent of Control Activity goes with 146 (MVLEFGLVGYFLLGGGSGWV) [compound 146] ?
Reply | 106%

Ask | // Percent of Control Activity lookup, key: 24 (MFKLSFYFYVV) [compound 24]
Reply | 94%

Ask | # lookup: Percent of Control Activity of 116 (MSGVRKEVSLL) [compound 116]
Reply | 99%

Ask | // lookup Percent of Control Activity for 96 (MNHNQYYQSMLIINNHNSYSNKT) [compound 96]
Reply | 91%

Ask | Item 42 (MGSSRLAVLCPPLHGQVNFTG) [compound 42] has what recorded Percent of Control Activity?
Reply | 107%

Ask | Look up Percent of Control Activity: 187 (AYEGCCYSCKQEDNADVSGFWVEK) [compound 187]
Reply | 110%

Ask | Name the reported Percent of Control Activity value associated with the substance 52 (MITVPAHKGMAMA) [compound 52]
Reply | 104%

Ask | // Percent of Control Activity lookup, key: 160 (MWLGVGLGWVG) [compound 160]
Reply | 94%

Ask | Which Percent of Control Activity value is on record for 14 (MDGCALLAVL) [compound 14] ?
Reply | 100%

Ask | May I ask what Percent of Control Activity has been recorded for 18 (MEAMGLAWNQLWGVRFLPFLS) [compound 18] ?
Reply | 97%

Ask | I'd like to know its Percent of Control Activity. The substance in question is 61 (MLFMRGNAMSGAPII) [compound 61]
Reply | 104%

Ask | Name the reported Percent of Control Activity value associated with the substance 121 (MSNMKTFSSA) [compound 121]
Reply | 99%

Ask | May I ask what Percent of Control Activity has been recorded for 2 (MAASVERGFIFLV) [compound 2] ?
Reply | 99%

Ask | // Percent of Control Activity lookup, key: 55 (MKHRQVLWVLSCGS) [compound 55]
Reply | 103%

Ask | Query (substance): 102 (MPLRLEWVQWGVGGWPWVCC) [compound 102] ; field requested: Percent of Control Activity
Reply | 102%

Ask | // returns reported Percent of Control Activity for input 93 (MMWKTIVVFQLQEHQWPQYAKLTP) [compound 93]
Reply | 104%

Ask | Would you mind telling me what Percent of Control Activity value was observed for 123 (MSRNHSFCLNYMPIRFSLILFVVTH) [compound 123] ?
Reply | 88%

Ask | Consider the substance 119 (MSLTPHILPTMP) [compound 119] and give its measured Percent of Control Activity.
Reply | 109%

Ask | Item 10 (MATKKNFMEKGTRAGDMGSKPHS) [compound 10] has what recorded Percent of Control Activity?
Reply | 100%

Ask | Percent of Control Activity for 46 (MHHMKHPIIC) [compound 46] ?
Reply | 104%

Ask | State the recorded Percent of Control Activity for this entry: 135 (MTNPENQNERKSVRFIHCPHNP) [compound 135]
Reply | 109%

Ask | Fill in: Percent of Control Activity of 140 (MTYSPEQSQLQYMHQQTMFNQ) [compound 140] is ___
Reply | 91%

Ask | For 197 (WVEVMMEVEIWCCEIVLGNSFSSQ) [compound 197] , what is its reported Percent of Control Activity?
Reply | 102%

Ask | What does the data say about its Percent of Control Activity? Entry: 70 (MLNWSNNLTNGTSYP) [compound 70]
Reply | 118%

Ask | Need Percent of Control Activity of 152 (MVRMLLVQWW) [compound 152] , thanks.
Reply | 110%
